# Study System: T1, full-length recombinant human PAD4 (human, UniProt Q9UM07 1-663)
# T1 construct: also called peptidylarginine deiminase 4
# T1 sequence (Q9UM07 whole entry): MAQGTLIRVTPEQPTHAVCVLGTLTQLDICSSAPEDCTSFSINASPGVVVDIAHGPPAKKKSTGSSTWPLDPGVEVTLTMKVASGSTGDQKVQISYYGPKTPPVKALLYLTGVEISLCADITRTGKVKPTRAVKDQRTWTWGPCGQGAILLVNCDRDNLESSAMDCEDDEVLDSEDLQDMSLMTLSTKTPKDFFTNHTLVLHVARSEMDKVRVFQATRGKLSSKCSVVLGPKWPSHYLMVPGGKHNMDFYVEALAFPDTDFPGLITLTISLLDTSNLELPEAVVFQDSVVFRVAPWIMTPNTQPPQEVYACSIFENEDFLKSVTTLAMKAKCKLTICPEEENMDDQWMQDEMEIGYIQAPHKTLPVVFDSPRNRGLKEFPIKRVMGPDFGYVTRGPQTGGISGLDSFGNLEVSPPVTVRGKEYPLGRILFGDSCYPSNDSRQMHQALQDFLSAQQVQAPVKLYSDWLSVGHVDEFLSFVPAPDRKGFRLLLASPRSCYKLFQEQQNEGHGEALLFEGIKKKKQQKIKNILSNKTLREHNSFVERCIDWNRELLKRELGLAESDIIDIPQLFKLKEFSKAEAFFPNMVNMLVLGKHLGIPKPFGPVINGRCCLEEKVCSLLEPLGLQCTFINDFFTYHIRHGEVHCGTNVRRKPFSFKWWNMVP
# Assay Summary: ELISA, human PAD4 on plate, antibody 6.104E-05 ug/mL
Experimental Readout: absorbance 490 nm/630 nm (OD)
Please state the figure in OD; there is no need to write the unit.

Solved cases (2 shown):
Binder: E9 (antibody, IgG1, V domains shown, Chicken variable regions in mouse chimeric antibody (IgG1) expression vectors; also called anti-PAD4 antibody E9; A11 etc) VH: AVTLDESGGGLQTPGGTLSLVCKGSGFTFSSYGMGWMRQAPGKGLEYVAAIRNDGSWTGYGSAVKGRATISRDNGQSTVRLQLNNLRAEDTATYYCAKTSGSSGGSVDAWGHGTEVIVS VL: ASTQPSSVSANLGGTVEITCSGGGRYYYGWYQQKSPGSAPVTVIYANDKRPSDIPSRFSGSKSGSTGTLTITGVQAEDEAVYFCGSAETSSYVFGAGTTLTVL
Readout Units: OD
absorbance 490 nm/630 nm: 0.07
//
Binder: H7 (antibody, IgG1, V domains shown, Chicken variable regions in mouse chimeric antibody (IgG1) expression vectors; also called anti-PAD4 antibody H7; A11 etc) VH: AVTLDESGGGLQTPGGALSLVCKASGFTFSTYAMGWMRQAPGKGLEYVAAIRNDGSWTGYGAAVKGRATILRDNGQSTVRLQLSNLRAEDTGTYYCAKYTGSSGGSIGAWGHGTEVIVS VL: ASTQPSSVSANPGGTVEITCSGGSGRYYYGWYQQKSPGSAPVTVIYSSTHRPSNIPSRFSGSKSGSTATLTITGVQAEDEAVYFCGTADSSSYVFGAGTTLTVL
Readout Units: OD
absorbance 490 nm/630 nm: 0.111

Below: the item to evaluate.
// query Quick one: absorbance 490 nm/630 nm of G8 (antibody, IgG1, V domains shown, Chicken variable regions in mouse chimeric antibody (IgG1) expression vectors; also called anti-PAD4 antibody G8; A11 etc) VH: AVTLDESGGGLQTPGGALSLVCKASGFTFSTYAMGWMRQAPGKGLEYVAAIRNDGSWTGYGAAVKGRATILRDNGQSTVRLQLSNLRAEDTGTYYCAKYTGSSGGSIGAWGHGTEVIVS VL: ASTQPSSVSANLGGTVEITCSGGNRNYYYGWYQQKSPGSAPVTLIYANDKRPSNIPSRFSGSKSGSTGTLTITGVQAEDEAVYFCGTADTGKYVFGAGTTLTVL ?
// result 0.1
